# Assay target: 5-hydroxytryptamine receptor 5A (Homo sapiens)
# Experiment summary: activation of human 5-HT5A receptor – cell-based, luminescence, full-deck HTS, counter-screen for OPRM1-OPRD1 heterodimer agonist project, primary screen (AID 504692);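 further: 0% = cells with vehicle only and 100% = reference agonist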
# Assay context: HTR5A agonist assay, at 9.3 µM, active compounds read high
The campaign covered roughly 340,000 compounds. About 2,000 (0.59%) were called active. The full list was thinned out, with actives kept by preference.
Tick MET if activation is 2% or greater. Tick NOT MET if activation is less than 2%.

{"Smiles notation": "COc1ccc(CN2CCN(C(=O)CCC(=O)Nc3nnc(C(C)C)s3)CC2)cc1F", "Assay target": "5-hydroxytryptamine receptor 5A (Homo sapiens)", "Label": "MET"}
{"Smiles notation": "CCn1c(SCC(=O)N/N=C/c2ccncc2)nc2ccccc21", "Assay target": "5-hydroxytryptamine receptor 5A (Homo sapiens)", "Label": "NOT MET"}
{"Smiles notation": "O=C(Nc1cccc(S(=O)(=O)N2CCCC2)c1)c1cncc(Br)c1", "Assay target": "5-hydroxytryptamine receptor 5A (Homo sapiens)", "Label": "NOT MET"}
{"Smiles notation": "O=C(Nc1cccc(S(=O)(=O)N2CCCCC2)c1)c1cncc(Br)c1", "Assay target": "5-hydroxytryptamine receptor 5A (Homo sapiens)", "Label": "NOT MET"}

Qu. Entry CC[C@]12c3[nH]c4cc(CCC(=O)N(C)C)ccc4c3CCN1C(=O)[C@@H](CC(=O)NCCCn1ccnc1)C[C@@H]2C(=O)N1CCN(C(=O)C2CC2)CC1 : is its activation no less than 2%?
Ans. MET

----------
# Assay target: 5-hydroxytryptamine receptor 5A (Homo sapiens)
# Experiment summary: activation of human 5-HT5A receptor – cell-based, luminescence, full-deck HTS, counter-screen for OPRM1-OPRD1 heterodimer agonist project, primary screen (AID 504692);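 further: 0% = cells with vehicle only and 100% = reference agonist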
# Assay context: HTR5A agonist assay, at 9.3 µM, active compounds read high
About 2,000 (0.59%) of roughly 340,000 compounds were called active. The full list was thinned out, with actives kept by preference.
Readout label: activation (%)
All answers are understood in %, so give the number only.

Use these answered entries as a reference point.
{"Compound": "O=S(=O)(c1ccc(Sc2nnc3ccccn23)nc1)N1CCOCC1", "Measurement unit": "%", "activation": 2.94}
{"Compound": "Brc1ccc(-c2nn[nH]n2)cc1", "Measurement unit": "%", "activation": 8.54}
{"Compound": "O=C(Nc1ccccc1Cl)O/N=C(/c1ccccc1)c1ccccn1", "Measurement unit": "%", "activation": 12.7}
{"Compound": "N#Cc1ccc(/C=C2\\CCn3c2nc2cc(C(=O)O)ccc2c3=O)cc1", "Measurement unit": "%", "activation": -2.04}
{"Compound": "Cc1ccc(C2=N/C(=C\\c3ccc(OS(=O)(=O)c4ccc(C)cc4)cc3)C(=O)O2)cc1", "Measurement unit": "%", "activation": 0.86}
{"Compound": "Cn1c(CCC(=O)Nc2ccccc2F)nnc1SCC(=O)Nc1ccccc1Cl", "Measurement unit": "%", "activation": -0.17}
{"Compound": "O=C(C1CCCO1)N1CCN(S(=O)(=O)c2ccc(Br)cc2)CC1 (stereo not given)", "Measurement unit": "%", "activation": 1.59}
{"Compound": "O=C(NCc1cccs1)c1cc(-c2ccccn2)nc2ccc(Br)cc12", "Measurement unit": "%", "activation": 12.8}
{"Compound": "Cn1cc([N+](=O)[O-])c(C(=O)Nc2ccc3c(c2)OCCO3)n1", "Measurement unit": "%", "activation": -1.8}
{"Compound": "O=C(COc1ccc(-n2cnnn2)cc1)Nc1ccccc1Cl", "Measurement unit": "%", "activation": 5.09}

Qu. Fill in activation for record O=C(C1CCC(=O)N(C2CC2)C1)N1CCN(c2ccc(Cl)cc2)CC1 (stereo not given)
Ans. 0.66

Qu. Retrieve activation measured for Cc1ccc(-n2c(SCC(=O)NCCC3=CCCCC3)nc3n[nH]c(C)c3c2=N)cc1Cl and print it.
Ans. 12.6

Qu. Please indicate activation recorded for O=S(=O)(NN=C1CCCCCCC1)c1ccc(Br)cc1
Ans. 9.89

Qu. Fill in reported activation for this entry: O=S(=O)(NC1CCCC1)c1ccc(-n2cnnn2)cc1
Ans. 4.29

Qu. Answer with the recorded activation for the compound listed here: CC(CCn1cccn1)NC(=O)CCc1nnc(CCc2ccccc2)o1 (stereo not given)
Ans. 4.98

Qu. Tell me activation reported for O=C(CC1Nc2ccccc2NC1=O)Nc1ccccc1 (stereo not given)
Ans. 17

Qu. Name the recorded activation of the item Cc1nc(S(=O)(=O)c2ccc(Br)cc2)nc2c1CCC2 in your answer.
Ans. 3.89

Qu. Using known records, supply activation for COc1ccccc1C(=O)NCCC(=O)NC(C)CCc1ccccc1 (stereo not given)
Ans. 5.98

Qu. Report activation for COC(=O)c1cc(C)sc1NC(=O)CC1Nc2ccccc2NC1=O (stereo not given)
Ans. 2.14

Qu. Give a short answer stating reported activation for CC(CNS(=O)(=O)c1ccc(Br)cc1)CN(C)C (stereo not given) .
Ans. 0.38
